measurement.target: Human renin (Homo sapiens, UniProt P00797)
Construct: taking the active type (67-406); made in house; host or cells: FreeStyle 293-F cells (transient expression of pcDNA3.1(+)/hREN)
Sequence (P00797 67-406): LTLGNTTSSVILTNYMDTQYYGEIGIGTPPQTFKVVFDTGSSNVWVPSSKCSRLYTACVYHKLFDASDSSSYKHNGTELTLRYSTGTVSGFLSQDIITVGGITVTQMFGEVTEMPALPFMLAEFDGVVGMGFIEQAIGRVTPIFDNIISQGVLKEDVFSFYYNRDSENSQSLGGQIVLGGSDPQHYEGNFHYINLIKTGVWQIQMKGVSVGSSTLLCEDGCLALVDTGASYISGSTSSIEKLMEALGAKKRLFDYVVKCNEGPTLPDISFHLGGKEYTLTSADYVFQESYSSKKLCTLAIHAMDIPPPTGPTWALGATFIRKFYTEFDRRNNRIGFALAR
assay.comment: Measurement of renin inhibition value (human renin, FITC substrate peptide, capillary electrophoresis)
Type: biochemical
run.conditions: test compound 1 μM; active type renin (67-406); pH 6.0, 37° C., 30 min; read-out: Human Renin Inhibitory Activity: inhibitory activity (%) at 1 μM
Consider the following compounds and their measured inhibition at 1 µM readings.
outcome.measure: inhibition at 1 µM (%)

# compound, uom, quantitative.readout
data = [
    ("COc1cccc(-n2cnc(C(=O)N3CCNC[C@H]3Cc3ccccc3)c2-c2ccccc2)c1OC [Example 57]", "%", 108),
    ("CCCCNc1ccccc1-n1ccc(C(=O)N2CCNCC2Cc2ccccc2)c1-c1ccccc1 (racemic) [Example 99]", "%", 105),
    ("COc1nc(C(=O)N2CCNC[C@H]2Cc2ccccc2)c(-c2ccccc2)n1-c1ccccc1 [Example 475]", "%", 97),
    ("CS(=O)(=O)c1ccc(COC[C@@H]2CNCCN2C(=O)c2ncn(-c3cccc(N4CCOCC4)c3)c2-c2ccccc2)cc1 [Example 472]", "%", 100),
    ("COc1ccc(S(=O)(=O)N2CCCC(n3cnc(C(=O)N4CCNC[C@H]4Cc4ccccc4)c3-c3ccccc3)C2)cn1 (stereo partly drawn) [Example 477]", "%", 102),
    ("Cc1cc(C(=O)N2CCNC[C@H]2Cc2ccccc2)c(-c2ccccc2)n1-c1cccc(N2CCOCC2)c1 [Example 105]", "%", 102),
    ("COc1cccc(-n2c(C)cc(C(=O)N3CCNC[C@H]3Cc3ccccc3)c2-c2ccccc2)c1OC [Example 43]", "%", 104),
    ("O=C(O)c1ccc(C[C@@H]2CNCCN2C(=O)c2ncn(-c3cccc(N4CCOCC4)c3)c2-c2ccccc2)cc1 [Example 161]", "%", 100),
    ("O=C(c1ncn(C2Cc3ccccc3C2)c1-c1ccccc1)N1CCNC[C@H]1Cc1ccccc1 [Example 73]", "%", 97),
    ("O=C(C[C@H](CCc1ccccc1)n1cnc(C(=O)N2CCNC[C@H]2Cc2ccccc2)c1-c1ccccc1)N1CCOCC1 [Example 478]", "%", 99),
    ("O=C(c1ncn(-c2cccc(N3CCOCC3)c2)c1-c1ccccc1)N1CCNC[C@H]1Cc1ccccc1 [Example 56]", "%", 104),
    ("O=C(c1ncn(C2CCCN(S(=O)(=O)c3ccccc3)C2)c1-c1ccccc1)N1CCNC[C@H]1Cc1ccccc1 (stereo partly drawn) [Example 476]", "%", 99),
]

The origin of these recorded values is patent US20100121048A1.
